System: TK-10 renal
Experiment: NCI tumour cell line growth inhibition, 48 h
assayReadout: GI50

Examples with their reported GI50 follow.
COc1cc(C(=O)/C=C/c2c(C(F)(F)F)nc3ccccn23)cc(OC)c1OC	2.09 µM
COc1cc(/C=C/C(=O)O[C@H]2[C@H](O[C@@H]3O[C@@H](C)[C@H](O)[C@@H](O)[C@H]3O)[C@@H](O)[C@H](OCCc3ccc(O)c(O)c3)O[C@@H]2COC2OCC(O)(CO)C2O)ccc1O (some centres not stated)	> 100 µM
Cn1c(C(=O)c2cccc3ccccc23)nc2ccccc21	> 100 µM

Short answer please: GI50, TK-10 renal, entry N#Cc1c(NC(=O)c2ccccc2F)sc2c1CCCC2
> 25 µM

###

Tested on: HOP-92 NSCLC
Assay: NCI tumour cell line growth inhibition, 48 h; in the data active means GI50 below about 0.43 µM; inactive means the rest
One label from this list, please: true for active, false for inactive

Recorded results for 3 molecules are shown here.
N#Cc1c(NC(=O)c2ccccc2F)sc2c1CCCC2	false
CC1CCN(CCOc2ccc(CNc3ccc4nc(CCC5CCCCC5)[nH]c4c3)cc2)CC1	false
COCCOCCOCCOCCOC(=O)OC[n+]1ccc(NC(=NCCCCCCOc2ccc(Cl)cc2)NC#N)cc1	false

# lookup: test call for N#Cc1cccc(Nc2ncc(-c3ccccc3)o2)c1
false

# lookup: test call for COC(=O)c1cc([N+](=O)[O-])cc([N+](=O)[O-])c1Cl
false

# lookup: test call for Cn1c(C(=O)c2cccc3ccccc23)nc2ccccc21
false

# lookup: test call for c1ccc(C2CCCCC2)c(OCCCCCN2CCNCC2)c1
false

# lookup: test call for Nc1nc2ccccc2c2c1S(=O)(=O)c1ccc(Cl)cc1C2=O
false

# lookup: test call for COc1cc2c(cc1NC(=O)C(Cl)Cl)-c1ccc(NC(=O)C(Cl)Cl)cc1C2
false

# lookup: test call for COC1=C(OC)C(=O)C(CCCCCCCCCCO)=C(C)C1=O
false

# lookup: test call for CC1SC(c2ccc(Cl)cc2)N(CCc2cccs2)C1=O (stereo not given)
false

# lookup: test call for Clc1nc(Cl)c2ncn(CCOCCn3cnc4c(Cl)nc(Cl)nc43)c2n1
true

# lookup: test call for COc1ccc(/C=N\Nc2nc(SCC(C)C)nc(-c3ccc(OC)cc3)c2C#N)cc1
false

###

Consider the following molecules and their measured TGI readings.
Tested on: HCT-15 colon
Assay: NCI tumour cell line growth inhibition, 48 h
Give the value in µM but do not write µM after it.

O=S(=O)(NCCCNc1cc(-c2cn(-c3ccccc3)nc2-c2cccc(O)c2)ccn1)c1ccc(F)cc1	7.9
O=[N+]([O-])c1cc(Cc2cc([N+](=O)[O-])c3cccnc3c2O)c(O)c2ncccc12	66.4

Which TGI is listed for COc1cccc(C(NC2=NCCC=N2)c2cc3c(cc2O)OCO3)c1O (stereo not given) ?
27.7

Which TGI is listed for O=C1/C(=C/c2ccccc2[N+](=O)[O-])COc2ccc(O)cc21 ?
2.06

###

Consider the following compounds and their measured TGI readings.
Tested on: SR leukemia
Test: NCI tumour cell line growth inhibition, 48 h
Give the value in µM but do not write µM after it.

Examples with their reported TGI follow.
C=CC(=O)N[C@@H](/C=C/C(=O)OCC)Cc1ccc(-c2cc(Cl)cc(Cl)c2)cc1	44.8
O=S(=O)(NCCCNc1cc(-c2cn(-c3ccccc3)nc2-c2cccc(O)c2)ccn1)c1ccc(F)cc1	6.09
C=C1C(=O)O[C@H]2[C@H]1CC/C(COC(=O)NCc1c[nH]c3ccc(F)cc13)=C\CC[C@@]1(C)O[C@@H]21	5.85

Which TGI is listed for Clc1nc(Cl)c2ncn(CCOCCn3cnc4c(Cl)nc(Cl)nc43)c2n1 ?
54.4

FYI, the data here is from PubChem BioAssay (NCI).
